The reported measurements were obtained from PubChem BioAssay (NCI).

Tested on: M14 melanoma
Test: NCI-60 one-dose screen, 48 h
Details: 10 µM unless noted
Method: Growth inhibition of the M14 human tumor cell line is measured as a screen for anti-cancer activity. Cells are grown in 96 well plates and exposed to the test compound for 48 hours. Compounds are tested at a single concentration, which is 10^-5 M for most compounds. The reported endpoint is percent growth (GI% or GIPRCNT), where numbers from 0 - 100% represent growth inhibition, and numbers from -100% - 0 represent cell death. For example, a value of 40 represents 60% growth inhibition. […]
The panel holds about 83,000 compounds, 20% with a hit somewhere; the sample as a whole holds those more often. The source made the active and inactive calls. The calls were made as follows: active = growth percent below 10; inactive = the rest.
Return exactly one item of TRUE (active), FALSE (inactive)

Answered cases to consult:
COMPOUND	GROUP
CC(C)n1cnc2c(=S)nc[nH]c21	FALSE
O=S(=O)(Nc1ccccc1)c1ccc(C2CC3(Cl)C(Cl)=C(Cl)C2(Cl)C3(Cl)Cl)cc1 (stereo unspecified)	FALSE
CCCCCCCCCCCCCCCC(N)c1ccccc1 (stereo unspecified)	TRUE
O=C(O)CNC1=C(Cl)C(=O)c2ccccc2C1=O	FALSE
O=C(COc1ccc(-c2nc3ccccc3[nH]2)cc1)N=Nc1c(O)[nH]c2ccc(Cl)cc12	FALSE

Just curious, what result did COC(=O)c1c2c(c(C)[n+]([O-])c1C)C(=O)C(NCc1ccc(Cl)cc1)=CC2=O get here?
FALSE

Same question for CCCC(O)Cn1ncc(C(=O)OCC)c1NC(=O)NCc1ccccc1F (stereo unspecified) please.
FALSE

Same question for N#Cc1cccc(-c2c(-c3ccc4ccccc4c3)oc3ccccc3c2=O)c1 please.
TRUE
